# ASSAY SYSTEM: KRAS G13D (Homo sapiens (Human), UniProt P01116+P62937, G13D)
# Sequence (P01116-2 other isoform, or with tags, fused parts or gaps G13D): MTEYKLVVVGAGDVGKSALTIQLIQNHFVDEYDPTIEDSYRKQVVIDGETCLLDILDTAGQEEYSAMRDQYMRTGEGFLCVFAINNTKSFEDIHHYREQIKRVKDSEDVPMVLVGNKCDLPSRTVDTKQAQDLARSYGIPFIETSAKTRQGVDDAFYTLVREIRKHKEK
# Sequence (P62937 whole entry): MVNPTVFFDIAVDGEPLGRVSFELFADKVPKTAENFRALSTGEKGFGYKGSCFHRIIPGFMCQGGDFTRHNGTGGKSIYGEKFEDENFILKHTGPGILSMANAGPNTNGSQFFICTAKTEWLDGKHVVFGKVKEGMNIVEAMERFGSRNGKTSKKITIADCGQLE
# ASSAY PROCEDURE: Ras-Raf (BRAF RBD) disruption / FRET / MOA assay, KRAS G13D
# Type: biochemical
# RECORDED CONDITIONS: read-out: IC50* KRAS G13D FRET data

MOLECULE	ASSAY SYSTEM	IC50
C=CC(=O)Nc1cnc(C(=O)N(C)[C@H](C(=O)N[C@H]2Cc3cc(O)cc(c3)-c3ccc4c(c3)c(c(-c3cccnc3[C@H](C)OC)n4CC)CC(C)(C)COC(=O)[C@@H]3CCCN(N3)C2=O)C(C)C)n1C (atropisomer, axis not shown)	KRAS G13D (Homo sapiens (Human), UniProt P01116+P62937, G13D)	100 to 1000 nM
CCn1c(-c2cccnc2[C@H](C)OC)c2c3cc(ccc31)C1=CCCN(C1)C[C@H](NC(=O)[C@@H](COC1CN(C(=O)C#CC(C)(C)N(C)C)C1)C(C)C)C(=O)N1CCC[C@H](N1)C(=O)OCC(C)(C)C2 (atropisomer, axis not shown)	KRAS G13D (Homo sapiens (Human), UniProt P01116+P62937, G13D)	> 10000 nM
CO[C@@H](C)c1ncccc1-c1c2c3cc(ccc3n1CC(F)(F)F)-c1cccc(c1)C[C@H](NC(=O)[C@H](C(C)C)N(C)C(=O)[C@H]1CCN(C(=O)C#CC(C)(C)N(C)C)C1)C(=O)N1CCC[C@H](N1)C(=O)OCC(C)(C)C2 (atropisomer, axis not shown)	KRAS G13D (Homo sapiens (Human), UniProt P01116+P62937, G13D)	1000 to 10000 nM
CCn1c(-c2cccnc2[C@H](C)OC)c2c3cc(ccc31)-c1csc(n1)C[C@H](NC(=O)C[C@@H]1COC3(CN(C(=O)C#CC(C)(C)N(C)C)C3)O1)C(=O)N1CCC[C@H](N1)C(=O)OCC(C)(C)C2 (atropisomer, axis not shown)	KRAS G13D (Homo sapiens (Human), UniProt P01116+P62937, G13D)	1000 to 10000 nM
